Molecular target: human CB1 receptor (Homo sapiens)
Construct: expressed in transfected cells; host or cells: HEK293
Sequence (P21554 whole entry): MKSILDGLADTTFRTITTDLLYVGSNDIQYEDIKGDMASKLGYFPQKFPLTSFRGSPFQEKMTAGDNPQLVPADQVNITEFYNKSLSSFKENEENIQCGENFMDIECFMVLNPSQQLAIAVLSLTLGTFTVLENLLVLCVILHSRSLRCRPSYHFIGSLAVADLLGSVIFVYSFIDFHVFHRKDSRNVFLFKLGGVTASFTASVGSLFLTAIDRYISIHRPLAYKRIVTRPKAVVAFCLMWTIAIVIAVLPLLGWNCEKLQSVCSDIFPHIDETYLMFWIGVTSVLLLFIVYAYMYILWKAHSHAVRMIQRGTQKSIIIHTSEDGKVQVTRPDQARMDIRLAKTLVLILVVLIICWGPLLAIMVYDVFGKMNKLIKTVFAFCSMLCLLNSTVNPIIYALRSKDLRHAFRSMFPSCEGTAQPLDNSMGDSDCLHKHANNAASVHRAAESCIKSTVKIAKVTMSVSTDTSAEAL
Experiment: bioSensAll GAPL-Gi2 BRET biosensor assay in HEK293 cells transfected with hCB1; test compound added before EC75-80 of agonist CP55,940 (0.1 nM)
Type: cell-based
Conditions: vs CP55,940 0.1 nM (EC75-80), read-out: CB1 wt Gi2 IC50
pIC50: −log10 of the molar value.
PROPERTY_MEASURED: pIC50

Here are 2 molecules together with their reported answers.
- MOLECULE: "CN(CCO)c1nc(N2CCC(C)(C(N)=O)CC2)c2nc(-c3ccccn3)n(-c3ccc(Cl)cc3)c2n1 [Compound 63]"
  pIC50: 8.00
- MOLECULE: "CCOC1(C(N)=O)CCN(c2nc(N(C)CCO)nc3c2nc(-c2ccccc2Cl)n3-c2ccc(Cl)cc2)CC1 [Compound 182]"
  pIC50: 9.76

I = Cc1cc(C#N)ncc1-c1nc2c(N3CCC(C)(C(N)=O)CC3)nc(OCC(C)(C)O)nc2n1-c1ccc(Cl)cc1 [Compound 108]
II = CC1(C(N)=O)CCN(c2nc(N3CCC[C@H]3CO)nc3c2nc(-c2cccc(C#N)c2)n3-c2ccc(Cl)cc2)CC1 [Compound 37]
Problem: I'm curious whether I or II has the smaller pIC50 number. Which is it? Your answer should be the label of the entry you select.
Result: II
(II: 8.13, I: 8.45)

----------
Target: human CB1 receptor (Homo sapiens)
Construct: expressed in transfected cells; host or cells: HEK293
Assay: bioSensAll GAPL-Gi2 BRET biosensor assay in HEK293 cells transfected with hCB1; test compound added before EC75-80 of agonist CP55,940 (0.1 nM)
Type: cell-based
Settings: vs CP55,940 0.1 nM (EC75-80), read-out: CB1 wt Gi2 IC50
Procedure: Using polyethylenimine (PEI) transfection agent, HEK293 cells were transfected in suspension with the human CB1 receptor and one of the following bioSensAll® assays: GAPL-Gi2, or β-arrestin plasma membrane (PM) translocation biosensor (+GRK2). Cells were directly seeded in 96-well plates immediately following transfection. Cells were incubated with coelenterazine (luciferase substrate) and different test compounds prior to the measurement of BRET signals. […]
pIC50: −log10 of the molar value.
PROPERTY_MEASURED: pIC50

Here are 3 molecules together with their reported answers.
- MOLECULE: "COC1(C)CN(c2nc(N(C)CCO)nc3c2nc(-c2ccccc2Cl)n3-c2ccc(Cl)cc2)C1"
  pIC50: 9.29
- MOLECULE: "CC(C)C(=O)Nc1nc(N2CCC(C)(C(N)=O)CC2)c2nc(-c3ccccc3Cl)n(-c3ccc(Cl)cc3)c2n1"
  pIC50: 8.37
- MOLECULE: "CCOC1(C(=O)O)CCN(c2nc(OCC(C)(C)O)nc3c2nc(-c2ccccc2Cl)n3-c2ccc(Cl)cc2)CC1"
  pIC50: 8.11

P = CS(=O)(=O)CCNc1nc(N2CCC(C(F)(F)F)CC2)c2nc(-c3ccccc3Cl)n(-c3ccc(Cl)cc3)c2n1
Q = CC1(C(N)=O)CCN(c2nc(N3C[C@H]4CCC[C@H]4C3)nc3c2nc(-c2ccccc2Cl)n3-c2ccc(Cl)cc2)CC1
R = CC(C)(O)COc1nc(N2CC(C)(O)C2)c2nc(-c3ccc(C#N)nc3)n(-c3ccc(Cl)cc3)c2n1
Problem: Rank entries according to their pIC50, from the largest number down. List labels; respect the requested ordering.
Result: P, Q, R
(P: 8.99, Q: 8.19, R: 7.05)
